Biological target: T1, PTP4A3 (PRL-3)
T1 construct: coated protein in the ELISA; also called His-PTP4A3 (R&D Systems)
T1 sequence (chain, as listed by the source limits assumed): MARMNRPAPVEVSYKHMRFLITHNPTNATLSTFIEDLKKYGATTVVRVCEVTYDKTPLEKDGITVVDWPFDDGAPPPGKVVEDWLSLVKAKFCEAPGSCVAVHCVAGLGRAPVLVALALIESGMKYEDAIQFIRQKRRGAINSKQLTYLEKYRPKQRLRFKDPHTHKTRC
Test: ELISA on coated His-PTP4A3, 150 ng IgG1; None 0.085
Below is a list of entries, each paired with its recorded ELISA Absorbance (405 nm-570 nm) value.
I only need the number, thanks.

Below are worked cases with known answers.
HW-16 chimeric rabbit-human IgG1 LA/LA/PG (antibody, V domains shown, Fc-silenced (L234A/L235A/P329G) IgG1, kappa; Alexa Fluor 647-labeled in single-step flow cytometry; Cluster C-45) VH: QSLEESGGRLVTPGTPLTLTCTASGFSLSSYAMSWVRQAPGKGLEWIGTMPTGGGTYYASWAKGRFTISKTSTTVDLQITSPTTEDTATYFCAKHWNIWGPGTLVTISS VL: DIVLTQTPSSTSTAVGDTVTINCRASQSIGRNLAWFQQKPGQPPKLLIYRASNLASGVPSRFKGSGSRTQFTLTISGVQREDAATYYCLGSYSSSDTAFGGGTELEILR ... 0.105
HW-25 chimeric rabbit-human IgG1 LA/LA/PG (antibody, V domains shown, Fc-silenced (L234A/L235A/P329G) IgG1, lambda; Alexa Fluor 647-labeled in single-step flow cytometry; Cluster C-1) VH: QSLEESGGRLVTPGTPLTLTCTVSGFSLSSYAMGWVRQAPGKGLEWIGIIDSRGSTYYATWAKGRFTISKTSTTVDLKITSPTTEDTATYFCAREDSYYYDSFNLWGPGTLVTVSS VL: SFVLTQPASVQVNLGQTVSLTCTADTLSRRYASWYQQKPGQAPVLLIYRDTSRPSGVPDRFSGSSSGNTATLTISGAQAGDEADYYCATSDGSGSSYQCVFGGGTQLTVTG ... 0.079
HW-56 chimeric rabbit-human IgG1 LA/LA/PG (antibody, V domains shown, Fc-silenced (L234A/L235A/P329G) IgG1, kappa; Alexa Fluor 647-labeled in single-step flow cytometry; Cluster C-45) VH: QSVKESEGGLFKPTDTLTLTCTASGFTVSTNAVTWVRQAPGNGLEYIGTIGRSGSAYFASWAKRRSTLTRDINLNTVTLKMTSLTAADTATYFCVRGSPGYRTAISIWGPGTLVTISS VL: AVMTQTPSSTSAAVEGTVTINCQASQSISNRLSWFQQKPGQPPKLLIYQASTLASGVPSRFKGSGSGTEFTLTISGVQREDAATYYCLGSYSSSDASFGGGTKLEIKR ... 0.104
HW-97 chimeric rabbit-human IgG1 LA/LA/PG (antibody, V domains shown, Fc-silenced (L234A/L235A/P329G) IgG1, lambda; Alexa Fluor 647-labeled in single-step flow cytometry; Prototype of cluster C-97) VH: QKQLVESGGRLVTPGTPLTLTCTVTGIDLSSHGMSWVRQAPGKGLEWIGVIYPSGSTWYASWARGRFTISKTSTTVDLKMTSLTTEDTATHFCARGDVGGADNNIWGPGTLVTVSS VL: SFVLTQPASVQVDLGQTVSLTCTAETLSRSYASWYQQKPGQAPVLLIYRDTSRPSGVPDRFSGSSSGNTATLTISGAQAGDEADYYCATSDGSGSSYQYVFGGGTQLTVTG ... 0.065

// switching to the query binder
Tell me the measured ELISA Absorbance (405 nm-570 nm) of HW-8 chimeric rabbit-human IgG1 LA/LA/PG (antibody, V domains shown, Fc-silenced (L234A/L235A/P329G) IgG1, kappa; Alexa Fluor 647-labeled in single-step flow cytometry; Cluster C-45) VH: QSLEESGGRLVTPGTPLTLTCTVSGFSLSSYAMSWVRQAPGKGLEWIGAISTGGSTTYASWAKGRFTISKTSSTTVDLKMTSLTTEDTATYFCVRHFRLWGPGTLVTISS VL: QVLTQTPSSVSAAVGGTVTIKCQASQSIGSALAWFQQKPGQRPKLLIYRASNLASGVPSRFKGSGSGTEFALTISGVQREDAATYYCLGGAAAVWAFGAGTNVEIKR , please.
0.075
